Reference for the values: PubChem BioAssay (NCI)

MEASUREMENT NOTES: NCI Yeast Anticancer Drug Screen. Data for the cln2 rad14 strain (AID 165);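 further: 0% = growth equal to vehicle treated cultures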
CONDITION LABEL: S. cerevisiae cln2 rad14 strain, at 5.0 µM (retest, dose inferred, filed as 0.5), stronger effect = higher value
The panel holds about 79,000 compounds, 15% with a hit somewhere; the sample as a whole holds those more often.
RECORDED METRIC: growth inhibition (%)

1. CCCCOC(=O)Nc1ccc(C)c(NC(=O)OCCCC)c1
-4
2. Cc1c2cccc(Sc3ccccc3)c2c2c3c(cccc13)[S+](c1ccccc1)C2 (configuration not stated)
7
3. Cc1ccc2nc(-c3cccc([N+](=O)[O-])c3)oc(=O)c2c1
43
4. Cc1cc(O)c(C(C)C)cc1C1(c2cc(C(C)C)c(O)cc2C)OC(=O)c2ccccc21
51
5. c1ccc2[nH]c(-c3cscn3)nc2c1
-25
6. CCO/C(C)=C(/C#N)C(N)=S
5
7. CC(=O)OCC(C)Cc1cc2c(cc1Br)OCO2 (configuration not stated)
-1
8. CCOC(=N)c1ccc(O)c(OC)c1
2
9. O=C1C=C(N2CCN(c3ccccn3)CC2)C(=O)c2c(O)ccc(O)c21
-6
10. O=C(O)Cc1cc(F)ccc1C(=O)O
-2
11. COc1ccc(N=CN(C)C)c(C)c1
63
12. NC(N)=NS(=O)(=O)c1ccc(Nc2c3ccccc3nc3c(C(=O)NCCO)cccc23)cc1
16

----------
MEASUREMENT NOTES: NCI Yeast Anticancer Drug Screen. Data for the sgs1 mgt1 strain (AID 161);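 further: 0% = growth of cultures given vehicle only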
CONDITION LABEL: S. cerevisiae sgs1 mgt1 strain, at 50.0 µM
About 79,000 compounds went through this panel and 15% of them were active in at least one assay; those are over-represented in the sample as a whole. Calls of active or inactive are those of the source. No stated cut-off is given here; in the data, active means growth inhibition above about 70%; inactive means the rest.
Outcome codes: 1 (active), 0 (inactive)

1) Nc1n[n+]([O-])c2ccc(Cl)cc2[n+]1[O-]
1
2) O=P(NC1CCCCC1)(OCc1ccccc1)OCc1ccccc1
0
3) CCCCCCN(CCCCCC)CC(O)c1ccnc2ccc(OC)cc12 (centres undefined)
1
4) CN(C)c1ccc(N=Nc2ccncc2)cc1
1
5) COc1ccc(NC(=O)CC2SC(=Nc3ccccc3C)NC2=O)c([N+](=O)[O-])c1 (centres undefined)
1
6) CC(=O)Nc1ccc2c(c1)-c1ccccc1C2=O
0
7) CN(C)c1ccc(C2CC(C)(O)Oc3cc4c(cc32)OCO4)cc1 (centres undefined)
0
8) CCCCOC(=O)Nc1ccc(C)c(NC(=O)OCCCC)c1
1
9) COc1oc(C(=O)NC2CCCCC2)c(-c2ccc(Cl)cc2)c1S(=O)(=O)c1ccccc1
1
10) Cc1nc(Nc2ccccc2[N+](=O)[O-])sc1C(=O)CC(=O)C(=O)Nc1c(C(C)C)cccc1C(C)C
0
11) O=C(CC(=O)n1nc(-c2ccccc2)c(N=Nc2ccc(Cl)cc2)c1-c1ccccc1)Nc1cccc(Cl)c1
1
12) N#CNC(N)=Nc1cc2ccccc2c2ccccc12
1
13) O=c1ccc2ccccc2c2ccccc12
1
14) CCCCc1ccc(-n2c(C)c(COC(=O)NC)c(COC(=O)NC)c2C)cc1
1
15) CCC(C)NC1=NCC(C)S1 (centres undefined)
0
16) CCN(CC)CCOc1cc(C)c2cc(Cc3ccccc3)ccc2n1
1
17) CCc1c[n+]([O-])c(C)cc1[N+](=O)[O-]
1
18) CCCCCCSc1ncnc2[nH]ncc12
1
19) OCc1ccccc1Cc1ccccc1
0
20) O=[N+]([O-])c1cc(S(=O)(=O)Nc2ccccc2)ccc1Nc1ccccc1
1
21) Cc1ccccc1N=Cc1cc(Cl)ccc1O
0
22) COc1cccc(/C=N/C(/N=C/c2cccc(OC)c2O)c2cccc(OC)c2O)c1O
1
23) COC(=O)C1(C)CCc2c(ccc3ccccc23)C1=O (centres undefined)
0
24) Cc1c(-c2ccccn2)ccc2ccccc12
1

----------
MEASUREMENT NOTES: NCI Yeast Anticancer Drug Screen. Data for the rad14 strain (AID 159);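 further: 0% = growth of vehicle-treated control cultures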
CONDITION LABEL: S. cerevisiae rad14 strain growth inhibition; at 3.7 µM; stronger effect = higher value
Procedure: Growth inhibition of yeast strains with defined genetic alterations is measured as a screen for potential anti-cancer activity. Selected strains with alterations in DNA damage repair or cell cycle control were exposed to compounds and growth inhibition was measured relative to vehicle treated controls. The strain used in this assay is rad14
About 79,000 compounds went through this panel and 15% of them were active in at least one assay; those are over-represented in the sample as a whole.
# growth inhibition annotations
RECORDED METRIC: growth inhibition (%)

1. COc1cc(C2c3cc4c(cc3OC(OC(C)=O)C2C)OCO4)cc(OC)c1OC (configuration not stated)
-4
2. O=C(Oc1ccc2c(c1)CN(Cc1ccccc1)CO2)c1ccccc1
11
3. O=C(NCCCl)Sc1ccc(Cl)cc1
-7
4. O=C(/C=C\c1cccc(C(F)(F)F)c1)c1ccccc1
1
5. Cc1cccc2c1nc1ccc(Cl)cc1[n+]2C
8
6. Nc1ccc2c(c1)C(=O)c1ccc(F)cc1-2
13
7. N#CC1=C(N)N(/N=C/c2ccccc2)C(c2ccccc2)C1(C#N)C#N (configuration not stated)
19
8. OC(CCNCc1ccccc1)c1ccc2ccccc2c1 (configuration not stated)
56
9. Oc1ccc(O)c(Cc2ccccc2)c1
34
10. c1ccc2cc(NCNc3ccc4ccccc4c3)ccc2c1
1
11. O=C1C(Br)=C(c2ccccc2)O/C1=C/C(=O)c1ccc(Br)cc1
6
12. CC(=O)OCC(C)Cc1cc2c(cc1Br)OCO2 (configuration not stated)
-3

----------
MEASUREMENT NOTES: NCI Yeast Anticancer Drug Screen. Data for the CLN2oe strain (AID 163);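 further: 0% = growth of vehicle-only control cultures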
CONDITION LABEL: S. cerevisiae CLN2oe strain, at 11.0 µM, stronger effect = higher value
Method: Growth inhibition of yeast strains with defined genetic alterations is measured as a screen for potential anti-cancer activity. Selected strains with alterations in DNA damage repair or cell cycle control were exposed to compounds and growth inhibition was measured relative to vehicle treated controls. The strain used in this assay is CLN2oe
Compounds without any hit were thinned out: in the full panel of roughly 79,000, 15% have a hit.
RECORDED METRIC: growth inhibition (%)

1. O=C1CSC(c2cccc(Cl)c2)N1c1ccc(-c2ccc(-n3c(-c4ccccc4)nc4ccccc4c3=O)cc2)cc1 (stereo unspecified)
15
2. Oc1ccc(O)c(Cc2ccccc2)c1
40
3. CSc1nnc(SC)nn1
15
4. CC1=NOC(=O)/C1=C/c1ccc2c(c1)OCO2
9
5. CC(C)(C)[Si](C)(C)OCC1CCC(n2cnc3c(NC(=O)c4ccccc4)ncnc32)O1 (stereo unspecified)
5
6. Cc1cc(C)nc(NS(=O)(=O)c2ccc(Nc3c4ccccc4nc4c(C(=O)NCCO)cccc34)cc2)n1
-3
7. CCCCN(CCCC)C(=O)/C=C/c1ccccc1
-23
8. Oc1ccc(-c2nc(-c3ccc(F)cc3)c(-c3ccc4ccccc4n3)[nH]2)cc1
93
9. O=C1OC(C2=CC(=O)c3ccccc3C2=O)C(Cl)=C1Cl (stereo unspecified)
-4
10. O=[N+]([O-])/C=C/c1cc(Cl)c(/C=C/[N+](=O)[O-])cc1Cl
49
11. O=c1[nH]c2ccc(Cl)cc2o1
-30

----------
# growth inhibition annotations
MEASUREMENT NOTES: NCI Yeast Anticancer Drug Screen. Data for the bub3 strain (AID 167)
CONDITION LABEL: S. cerevisiae bub3 mutant strain, at 100.0 µM, stronger effect = higher value
Protocol: Growth inhibition of yeast strains with defined genetic alterations is measured as a screen for potential anti-cancer activity. Selected strains with alterations in DNA damage repair or cell cycle control were exposed to compounds and growth inhibition was measured relative to vehicle treated controls. The strain used in this assay is bub3
About 79,000 compounds went through this panel and 15% of them were active in at least one assay; those are over-represented in the sample as a whole. Active and inactive are the calls of the source. Cut-off read from the data, not from the text of the source: active = growth inhibition above about 70%; inactive = the rest.
RECORDED METRIC: growth inhibition

1. CCCCc1ccc(-n2c(C)c(COC(=O)NC)c(COC(=O)NC)c2C)cc1
88% (active)
2. NC1CCCCC1N.Nc1c(N=Nc2ccc(-c3ccc(N=Nc4cc(S(=O)(=O)[O-])c5ccccc5c4N)cc3)cc2)cc(S(=O)(=O)[O-])c2ccccc12.[OH3+].[OH3+].[Pt+4]
68% (inactive)
3. O=C1CSC(c2cccc(Cl)c2)N1c1ccc(-c2ccc(-n3c(-c4ccccc4)nc4ccccc4c3=O)cc2)cc1 (stereo not drawn)
29% (inactive)
4. COc1ccc([N+](=O)[O-])c2c(NCCCN(C)C)c3ccccc3nc12
9% (inactive)
5. C[C@]12CC[C@H](O)CC1=CC[C@@H]1C2CC[C@]2(C)C(=O)NC(=O)CC12 (stereo partly drawn)
86% (active)
6. CCO/C(C)=C(/C#N)C(N)=S
-4% (inactive)
7. CN(C)CCCCN1c2ccccc2Sc2ccc(N=[N+]=[N-])cc21
98% (active)
8. O=C1OC(OC/C(Br)=C(\Br)COC2OC(=O)C(Cl)=C2Cl)C(Cl)=C1Cl (stereo not drawn)
16% (inactive)
